Test system: HT-29
Test: NCI tumour cell line growth inhibition, 48 h
The source made the active and inactive calls. Cut-off read from the data, not from the text of the source: active = GI50 up to about 1.1 µM and inactive = higher.
A correct response names exactly one class from T (active), F (inactive)

*Q* // param item: NCC(O)CSP(=O)(O)O (centres undefined) ; yields the recorded call
*A* F

*Q* // param item: COC(=O)C1(Cc2ccccc2)Cc2cc3c(cc2C1=O)CCC3 (centres undefined) ; yields the recorded call
*A* F

*Q* // param item: CNC(=O)CCCNC(=O)CCCC(=O)OC ; yields the recorded call
*A* F

*Q* // param item: CCOc1cccc(-c2cc(O)c3cc4c(cc3n2)OCO4)c1 ; yields the recorded call
*A* T

*Q* // param item: C[C@@H]1OC(=O)C[C@H]2CC(=O)N(CCC3CN(S(=O)(=O)C(F)(F)F)c4ccccc43)C[C@@H]21 (some centres undefined) ; yields the recorded call
*A* F

*Q* // param item: c1ccc(C(c2cccc3c2ccc2ccccc23)C(c2ccccc2)c2cccc3c2ccc2ccccc23)cc1 (centres undefined) ; yields the recorded call
*A* F

*Q* // param item: CN(C)CC1CC/C(=C\c2ccc(O)cc2)C1=O (centres undefined) ; yields the recorded call
*A* F

*Q* // param item: CC(=O)NC(Cc1ccccc1)NC(=O)O (centres undefined) ; yields the recorded call
*A* F

*Q* // param item: COC(=O)C(C)(C)NC(=O)C(Cc1ccccc1)Nc1ncnc2c1ncn2-c1ccc(OC)cc1 (centres undefined) ; yields the recorded call
*A* F

*Q* // param item: Cc1cc(N(CCC#N)CCC#N)ccc1C(/N=N/c1ccc([N+](=O)[O-])cc1)=N\NC(=O)c1ccccc1 ; yields the recorded call
*A* F

*Q* // param item: c1ccc(C2=NOC(c3ccccc3)N2C23CC4CC(CC(C4)C2)C3)cc1 (centres undefined) ; yields the recorded call
*A* F

*Q* // param item: O=C(O)CC(C(=O)O)C1c2ccccc2-c2ccccc21 (centres undefined) ; yields the recorded call
*A* F

*Q* // param item: C=C(C)COc1cc(/N=C(/S)OC(C)C)ccc1Cl ; yields the recorded call
*A* F

*Q* // param item: N#CC(C#N)=Cn1c(=S)[nH]c2ccccc21 ; yields the recorded call
*A* F
